# Experiment Notes: Viability of reconstructed cornea-like epithelium (eye irritation model)
# Assay type: cell-based
# Experimental Conditions: human, reconstructed cornea-like epithelium (RhCE, EpiOcular™)
Where a SMILES comes first, the peptide text is derived from it.
Value Kind: viability at 200 µg/mL (%)
State the answer as a number, implicitly in %.

Query :: Answer with the recorded viability at 200 µg/mL of N=C(N)NCCC[C@@H]1NC(=O)CNC(=O)[C@H](Cc2c[nH]c3ccccc23)NC(=O)[C@H](Cc2ccccc2)NC(=O)[C@H](Cc2c[nH]c3ccccc23)NC(=O)[C@@H](Cc2ccccc2)NC(=O)[C@H](CCCCN)NC(=O)[C@H](CCCCN)NC1=O [MFIGAF001, Cyclo(Arg-Lys-Lys-phe-Trp-Phe-Trp-Gly)] (HELM PEPTIDE1{F.W.G.R.K.K.[dF].W}$PEPTIDE1,PEPTIDE1,1:R1-8:R2$$$V2.0) only.
Result :: 87.2
